# Read-out: Matrix Metallopeptidase 1 (MMP1), MMP1 (gene 4312)
# assay-remarks: BSK_MyoF_MMP1: BioMAP Diversity Plus: MyoF Assay for Matrix Metallopeptidase 1 (MMP1) Biomarker Activity (AID 2284268)
# run-conditions: primary human lung fibroblasts
Calls of active or inactive are those of the source. The calls were made as follows: active = hit-call score of the fitted dose curve at least 0.9, where 1 is the maximum; inactive = score below 0.9.
Write down the outcome that applies. Available outcomes: 1 (yes) = active, 0 (no) = inactive

Worked examples follow.
smiles=O=C(c1ccccc1)c1ccc(O)cc1O class="0 (no)"
smiles=Cc1cc(O)c(C(C)(C)C)cc1C(C)(C)C class="1 (yes)"
smiles=CCN(CC)c1ccc2c(c1)Oc1cc(N(CC)CC)ccc1C21OC(=O)c2ccccc21 class="0 (no)"
smiles=O=C(Cl)C(F)(F)C(F)(F)C(F)(F)C(F)(F)C(F)(F)C(F)(F)F class="0 (no)"
smiles=Brc1nc2ccccc2s1 class="0 (no)"
smiles=CN(C(=O)C(F)(F)C(F)(F)C(F)(F)F)[Si](C)(C)C class="0 (no)"
smiles=Cc1cc(C)c(O)c(C(C)(C)C)c1 class="0 (no)"
smiles=O=C(F)C1(F)C(F)(F)C(F)(F)C(F)(F)C(F)(F)C1(F)F class="0 (no)"

Please find the next molecule below.
Request: Which outcome was entered for the molecule `NC(=O)C(F)(F)C(F)(F)C(F)(F)F` in this test?
Response: 0 (no)
